Molecular target: human CD137 on DO11.10-hCD137 cells (human, UniProt Q07011 24-255)
Sequence (Q07011 24-255): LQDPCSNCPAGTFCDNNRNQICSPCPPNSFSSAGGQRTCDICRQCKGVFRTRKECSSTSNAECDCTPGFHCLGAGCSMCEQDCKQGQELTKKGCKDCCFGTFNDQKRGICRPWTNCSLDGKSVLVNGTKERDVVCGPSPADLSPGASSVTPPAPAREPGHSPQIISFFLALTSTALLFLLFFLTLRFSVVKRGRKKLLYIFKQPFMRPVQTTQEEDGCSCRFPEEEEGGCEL
Assay: cell-based or functional assay
Quantity kind: Emax (mIL-2 pg/ml), DO11.10-hCD137 T cell assay, crosslinked

| Binder | Value reported |
| --- | --- |
| FS20-22-49AA/FS30-5-37 (bispecific antibody, human IgG1, kappa, L234A L235A, V domains shown, M100D to I and M100H to L against FS30-5; also called FS30-5-37 in mAb^2 format) VH: EVQLLESGGGLVQPGGSLRLNCAASGFTFSSYAMSWVRQAPGKGLEWVSAISGSGGSTYYADSVKGRFTISRDNSKNTLYLQMNSLRAEDTAVYYCARSYDKYWGSSIYSGLDYWGQGTLVTVSS VL: EIVLTQSPGTLSLSPGERATLSCRASQSVSSSYLAWYQQKPGQAPRLLIYGASSRATGIPDRFSGSGSGTDFTLTISRLEPEDFAVYYCQQYYSYYPVTFGQGTKVEIKR | 18100 pg/mL |
